# key: entry, value: IC50, whole blood mm2
Biological target: T1, human IL-33 (mm2) (human, UniProt O95760 112-270)
T1 chain: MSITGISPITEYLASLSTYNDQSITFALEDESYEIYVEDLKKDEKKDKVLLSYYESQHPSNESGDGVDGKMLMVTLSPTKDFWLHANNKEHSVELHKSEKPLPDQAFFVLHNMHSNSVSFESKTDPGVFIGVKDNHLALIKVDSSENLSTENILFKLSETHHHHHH
Assay: cell-based or functional assay

{"Binder": "IL33-186 (antibody, human IgG1, kappa, V domains shown) VH: EVQLVESGGGLVQPGGSLRLSCAASGFTFSSYWMYWVRQAPGKGLEWVAAITPNGGETYYPESVKGRFTISRDNAKNSLYLQMNSLRAEDTAVYYCARGHYYYTSYSLGYWGQGTLVTVSS VL: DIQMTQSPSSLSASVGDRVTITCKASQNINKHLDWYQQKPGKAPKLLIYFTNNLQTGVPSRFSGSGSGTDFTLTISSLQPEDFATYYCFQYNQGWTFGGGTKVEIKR", "Result unit": "nM", "IC50, whole blood mm2": 0.012}
{"Binder": "IL33-172 (antibody, human IgG1, kappa, V domains shown) VH: EVQLVESGGGLVQPGGSLRLSCAASGFTFSSYWMYWVRQAPGKGLEWVAAITPNAGEDYYPESVKGRFTISRDNAKNSLYLQMNSLRAEDTAVYYCARGHYYYTSYSLGYWGQGTLVTVSS VL: DIQMTQSPSSLSASVGDRVTITCKASQNINKHLDWYQQKPGKAPKLLIYFTNNLQTGVPSRFSGSGSGTDFTLTISSLQPEDFATYYCFQYNNGWTFGGGTKVEIKR", "Result unit": "nM", "IC50, whole blood mm2": 0.012}
{"Binder": "IL33-171 (antibody, human IgG1, kappa, V domains shown) VH: EVQLVESGGGLVQPGGSLRLSCAASGFTFSSYWMYWVRQAPGKGLEWVAAITPNAGEDYYPDSVKGRFTISRDNAKNSLYLQMNSLRAEDTAVYYCARGHYYYTSYSLGYWGQGTLVTVSS VL: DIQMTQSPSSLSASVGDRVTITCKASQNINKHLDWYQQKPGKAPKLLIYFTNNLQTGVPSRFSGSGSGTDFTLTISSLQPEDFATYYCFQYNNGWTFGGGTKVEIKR", "Result unit": "nM", "IC50, whole blood mm2": 0.012}
{"Binder": "IL33-157 (antibody, human IgG1, kappa, V domains shown) VH: EVQLVESGGGLVQPGGSLRLSCAASGFTFSSYWMYWVRQAPGKGLEWVAAITPNAGEDYYPDSVKGRFTISRDNAKNSLYLQMNSLRAEDTAVYYCARGHYYYTSYSLGYWGQGTLVTVSS VL: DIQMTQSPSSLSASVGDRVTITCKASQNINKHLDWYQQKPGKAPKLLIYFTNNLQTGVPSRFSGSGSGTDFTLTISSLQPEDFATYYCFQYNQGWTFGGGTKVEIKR", "Result unit": "nM", "IC50, whole blood mm2": 0.016}
{"Binder": "IL33-188 (antibody, human IgG1, kappa, V domains shown) VH: EVQLVESGGGLVQPGGSLRLSCAASGFTFSSYWMYWVRQAPGKGLEWVAAITPNAGETYYPESVKGRFTISRDNAKNSLYLQMNSLRAEDTAVYYCARGHYYYTSYSLGYWGQGTLVTVSS VL: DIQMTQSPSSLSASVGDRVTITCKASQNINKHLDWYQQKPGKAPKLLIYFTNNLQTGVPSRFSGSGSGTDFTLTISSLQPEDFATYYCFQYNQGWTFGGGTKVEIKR", "Result unit": "nM", "IC50, whole blood mm2": 0.017}
{"Binder": "IL33-169 (antibody, human IgG1, kappa, V domains shown) VH: EVQLVESGGGLVQPGGSLRLSCAASGFTFSSYWMYWVRQAPGKGLEWVAAITPNGGEDYYPDSVKGRFTISRDNAKNSLYLQMNSLRAEDTAVYYCARGHYYYTSYSLGYWGQGTLVTVSS VL: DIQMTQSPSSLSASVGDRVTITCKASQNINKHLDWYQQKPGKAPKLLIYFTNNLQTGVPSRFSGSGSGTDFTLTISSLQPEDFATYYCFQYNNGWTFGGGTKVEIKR", "Result unit": "nM", "IC50, whole blood mm2": 0.009}
